Sequence of the target: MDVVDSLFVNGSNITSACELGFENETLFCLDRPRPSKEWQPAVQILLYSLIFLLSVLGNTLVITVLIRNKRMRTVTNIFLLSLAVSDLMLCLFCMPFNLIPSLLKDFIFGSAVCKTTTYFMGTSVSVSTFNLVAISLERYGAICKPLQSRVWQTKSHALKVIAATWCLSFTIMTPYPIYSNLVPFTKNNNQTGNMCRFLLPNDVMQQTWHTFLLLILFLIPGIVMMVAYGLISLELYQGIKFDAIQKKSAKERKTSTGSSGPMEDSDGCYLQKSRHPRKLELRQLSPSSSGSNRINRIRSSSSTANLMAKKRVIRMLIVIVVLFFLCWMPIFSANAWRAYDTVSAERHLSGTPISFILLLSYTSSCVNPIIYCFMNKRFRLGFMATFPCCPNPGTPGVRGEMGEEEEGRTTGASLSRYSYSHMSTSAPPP
pIC50: −log10 of the molar value. Where a SMILES comes first, the peptide text is derived from it. [ ]: non-standard residue; d: D form. The star is where a group is joined. 2Naphthoyl(6-OH) = O=C(c1ccc2cc(O)ccc2c1)*; NMeF = CN[C@@H](Cc1ccccc1)C(=O)O; X10 = O=C(/C=C\c1ccc(Cl)cc1Cl)*; X21 = O=C(/C=C\c1ccc(Br)cc1)*; X33 = O=C(/C=C/c1ccc(Cl)cc1)*; X18 = O=C(c1cc2ccccc2[nH]1)*; X19 = O=C(/C=C\c1ccccc1)*; X9 = O=C(/C=C/c1cccs1)*; Boc = CC(C)(C)OC(=O)*

| molecule | pIC50 |
| --- | --- |
| CC(C)(C)OC(=O)N[C@@H](Cc1c[nH]c2ccccc12)C(=O)N[C@@H](CCCCNC(=O)/C=C\c1ccc(Cl)cc1Cl)C(=O)N[C@@H](CC(=O)O)C(=O)N[C@@H](Cc1ccccc1)C(N)=O (Boc-WK(X10)DF-NH2) | 6.89 |
| CN(C(=O)[C@H](CC(=O)O)NC(=O)[C@H](CCCCNC(=O)/C=C/c1ccc(Cl)cc1)NC(=O)[C@H](Cc1c[nH]c2ccccc12)NC(=O)OC(C)(C)C)[C@@H](Cc1ccccc1)C(N)=O (Boc-WK(X33)D[NMeF]-NH2) | 7.82 |
| CC(C)(C)OC(=O)N[C@@H](Cc1c[nH]c2ccccc12)C(=O)N[C@@H](CCCCNC(=O)c1cc2ccccc2[nH]1)C(=O)N[C@@H](CC(=O)O)C(=O)N[C@@H](Cc1ccccc1)C(N)=O (Boc-WK(X18)DF-NH2) | 7.41 |
| CN(C(=O)[C@H](CC(=O)O)NC(=O)[C@H](CCCCNC(=O)c1ccc2cc(O)ccc2c1)NC(=O)[C@H](Cc1c[nH]c2ccccc12)NC(=O)OC(C)(C)C)[C@@H](Cc1ccccc1)C(N)=O (Boc-WK(2Naphthoyl(6-OH))D[NMeF]-NH2) | 8.42 |
| CC(C)(C)OC(=O)N[C@@H](Cc1c[nH]c2ccccc12)C(=O)N[C@@H](CCCCNC(=O)/C=C\c1ccc(Br)cc1)C(=O)N[C@@H](CC(=O)O)C(=O)N[C@@H](Cc1ccccc1)C(N)=O (Boc-WK(X21)DF-NH2) | 6.85 |
| CC(C)(C)OC(=O)N[C@@H](Cc1c[nH]c2ccccc12)C(=O)N[C@@H](CCCCNC(=O)/C=C\c1ccccc1)C(=O)N[C@@H](CC(=O)O)C(=O)N[C@@H](Cc1ccccc1)C(N)=O (Boc-WK(X19)DF-NH2) | 7.26 |
| CC(C)(C)OC(=O)N[C@@H](Cc1c[nH]c2ccccc12)C(=O)N[C@@H](CCCCNC(=O)/C=C/c1cccs1)C(=O)N[C@@H](CC(=O)O)C(=O)N[C@@H](Cc1ccccc1)C(N)=O (Boc-WK(X9)DF-NH2) | 7.30 |
